# experimental.system: human EP2 (PTGER2) (Homo sapiens)
# Construct: Cayman Chemical (Human EP2 Reporter Assay Kit)
# Sequence (P43116 whole entry): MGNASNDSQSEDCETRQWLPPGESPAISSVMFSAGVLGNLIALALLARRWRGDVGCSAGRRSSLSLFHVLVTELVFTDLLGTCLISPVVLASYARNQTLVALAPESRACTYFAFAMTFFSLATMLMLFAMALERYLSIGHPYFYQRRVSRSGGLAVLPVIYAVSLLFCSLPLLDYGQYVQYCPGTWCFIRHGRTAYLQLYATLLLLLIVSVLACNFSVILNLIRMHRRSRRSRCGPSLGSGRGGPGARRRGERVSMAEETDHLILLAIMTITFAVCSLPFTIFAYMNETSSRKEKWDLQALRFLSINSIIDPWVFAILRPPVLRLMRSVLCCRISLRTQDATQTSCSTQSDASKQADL
# test.description: EP2 antagonist assay (HEK-293 CNG membrane potential cAMP assay / 293T SEAP reporter assay, PGE2-stimulated)
# condition.details: EP2 antagonist activity; concentration for 50% inhibition of signal compared to DMSO
pIC50: −log10 of the molar value.
Task for the reader: assign each of the following compounds its reported pIC50.

Task item: Endpoint output: pIC50 of C[C@@H](NC(=O)c1cc(-c2ccccc2)cc2ccn(Cc3ccc(C(F)(F)F)cc3)c12)c1ccc(C(=O)O)cc1 . Value?
Reply: ≤ 6.00

Task item: And the next one, C[C@H](NC(=O)c1cc(-c2ccccc2)cc2ccn(Cc3ccc(-c4ccc(F)cc4)cc3)c12)c1ccc(C(=O)O)cc1 ?
Reply: > 7.00

Task item: And the next one, O=C(O)c1ccc(CNC(=O)c2cc(-c3ccc(F)c(F)c3)cc3ccn(Cc4ccc5ccccc5c4)c23)cc1 ?
Reply: > 7.00

Task item: And the next one, COc1cccc(-c2cc(C(=O)NCc3ccc(C(=O)O)cc3)c3c(ccn3Cc3ccc(C(F)(F)F)cc3)c2)c1 ?
Reply: > 7.00

Task item: And the next one, O=C(O)c1ccc(CNC(=O)c2cc(-c3ccc(F)cc3)cc3ccn(Cc4ccc(-c5ccc(F)cc5)cc4)c23)cc1 ?
Reply: > 7.00

Task item: And the next one, O=C(O)c1ccc(CNC(=O)c2cc(-c3cc(F)cc(Cl)c3)cc3ccn(Cc4ccc(C(F)(F)F)cc4)c23)cc1 ?
Reply: > 7.00

Task item: And the next one, NS(=O)(=O)c1cccc(-c2cc(C(=O)NCc3ccc(C(=O)O)cc3)c3c(ccn3Cc3ccc(C(F)(F)F)cc3)c2)c1 ?
Reply: > 7.00

Task item: And the next one, N#Cc1cccc(-c2cc(C(=O)NCc3ccc(C(=O)O)cc3)c3c(cnn3Cc3ccc(C(F)(F)F)cc3)c2)c1 ?
Reply: > 7.00

Task item: And the next one, N#Cc1cccc(-c2cc(C(=O)NCc3ccc(C(=O)O)cc3)c3c(ccn3Cc3ccc(C(F)(F)F)cc3)c2)c1 ?
Reply: > 7.00

Task item: And the next one, C[C@H](NC(=O)c1cc(-c2ccc(F)c(F)c2)cc2cnn(Cc3ccc4ccccc4c3)c12)c1ccc(C(=O)O)cc1 ?
Reply: > 7.00

Task item: And the next one, C[C@H](NC(=O)c1cc(-c2cc(F)cc(F)c2)cc2ccn(Cc3cccc(Cl)c3)c12)c1ccc(C(=O)O)cc1 ?
Reply: > 7.00

Task item: And the next one, C[C@H](NC(=O)c1cc(-c2ccccc2)cc2ccn(Cc3ccc4ccccc4c3)c12)c1ccc(C(=O)O)cc1 ?
Reply: > 7.00

Task item: And the next one, CNC(=O)c1cccc(-c2cc(C(=O)NCc3ccc(C(=O)O)cc3)c3c(ccn3Cc3ccc(C(F)(F)F)cc3)c2)c1 ?
Reply: 6.00 to 7.00

Task item: And the next one, O=C(O)c1ccc(CNC(=O)c2cc(-c3cccc(C(F)(F)F)c3)cc3ccn(Cc4ccc(C(F)(F)F)cc4)c23)cc1 ?
Reply: 6.00 to 7.00

Task item: And the next one, NC(=O)c1cccc(-c2cc(C(=O)NC3CC4(C3)CC(C(=O)O)C4)c3c(Sc4ccc(C(F)(F)F)cc4)c[nH]c3c2)c1 (racemic) ?
Reply: 6.00 to 7.00

Task item: And the next one, C[C@H](NC(=O)c1cc(-c2cc(F)cc(F)c2)cc2ccn(Cc3ccc(C(F)(F)F)cc3)c12)c1ccc(C(=O)O)cc1 ?
Reply: > 7.00

Task item: And the next one, O=C(O)c1ccc(CNC(=O)c2cc(-c3cccnc3)cc3ccn(Cc4cccc(Cl)c4)c23)cc1 ?
Reply: > 7.00

Task item: And the next one, O=C(O)c1ccc(CNC(=O)c2cc(-c3ccc(F)c(F)c3)cc3ccn(Cc4ccc(C(F)(F)F)cc4)c23)cc1 ?
Reply: > 7.00

Task item: And the next one, N#Cc1cccc(-c2ccc(C(=O)NCc3ccc(C(=O)O)cc3)c3c2ccn3Cc2ccc(C(F)(F)F)cc2)c1 ?
Reply: 6.00 to 7.00

Task item: And the next one, C[C@H](NC(=O)c1cc(-c2ccc(F)cc2)cc2ccn(Cc3ccc(C(F)(F)F)cc3)c12)c1ccc(C(=O)O)cc1 ?
Reply: > 7.00

Task item: And the next one, N#Cc1cccc(-c2ccc(C(=O)NC3(c4ccc(C(=O)O)cc4)CC3)c3c2ccn3Cc2ccc(C(F)(F)F)cc2)c1 ?
Reply: ≤ 6.00

Task item: And the next one, N#Cc1cc(-c2cc(C(=O)NCc3ccc(C(=O)O)cc3)c3c(ccn3Cc3ccc(C(F)(F)F)cc3)c2)ccc1F ?
Reply: 6.00 to 7.00

Task item: And the next one, C[C@H](NC(=O)c1cc(-c2cc(F)cc(F)c2)cc2nnn(Cc3ccc(C(F)(F)F)cc3)c12)c1ccc(C(=O)O)cc1 ?
Reply: ≤ 6.00

Task item: And the next one, O=C(O)c1ccc(CNC(=O)c2cc(-c3ccccc3)cc3ccn(Cc4ccc(-c5ccc(F)cc5)cc4)c23)cc1 ?
Reply: > 7.00

Task item: And the next one, CS(=O)(=O)c1cccc(-c2cc(C(=O)NCc3ccc(C(=O)O)cc3)c3c(ccn3Cc3ccc(C(F)(F)F)cc3)c2)c1 ?
Reply: > 7.00

Task item: And the next one, C[C@H](NC(=O)c1cc(-c2ccccc2)cc2cnn(Cc3cccc(C(F)(F)F)c3)c12)c1ccc(C(=O)O)cc1 ?
Reply: > 7.00

Task item: And the next one, COc1cccc(Cn2ccc3c(Nc4ccccc4)ccc(C(=O)NCc4ccc(C(=O)O)cc4)c32)c1 ?
Reply: > 7.00
